- Protocol: In vivo rat pharmacokinetics (intravenous and oral)
- Condition label: plasma, oral by gavage
Please provide measured bioavailability for the entries that follow.
Answers are plain numbers, in %.

Worked cases, bioavailability given:
-- ask Supply measured bioavailability of Cc1cc(C(=O)N2CCN(C(=O)c3cn4nc(-c5ccc(F)cc5)cc(C(C)C)c4n3)C(C)(C)C2)[nH]n1 [Compound I-303] in your reply.
-- reply 69

-- ask Specify measured bioavailability for CC(C)(C)c1cc(-c2ccc(F)cc2)nn2cc(C(=O)N3CCN(C(=O)C4CC(O)(C(F)(F)F)C4)CC3(C)C)nc12 (centres unmarked) [Compound I-199] .
-- reply 67

Provide each entry's bioavailability from the list below.
1. CC(C)(C)c1cc(-c2ccc(Cl)cc2)nn2cc(C(=O)N3CCN(C(=O)[C@H]4C[C@@](C)(O)C4)CC3(C)C)nc12 [Compound I-421]
2. CC(C)(C)c1cc(-c2ccc(F)cc2)nn2cc(C(=O)N3CCNC(=O)C3(C)C)nc12 [Compound I-191]
3. Cc1cc(-c2cc(C(C)C)c3nc(C(=O)N4CCNC(=O)C4(C)C)cn3n2)ccc1F [Compound I-244]
4. CC(C)(O)C(=O)N1CCN(C(=O)c2cn3nc(-c4ccc(F)cc4)cc(C4(C)CC4)c3n2)C(C)(C)C1 [Compound I-32]
5. Cc1nnc(C(=O)N2CCN(C(=O)c3cn4nc(C5CCC(F)(F)CC5)cc(C(C)(C)C)c4n3)C(C)(C)C2)[nH]1 [Compound I-448]
6. CC(C)(C)c1cc(-c2ccc(F)cc2)nn2cc(C(=O)N3CCN(C(=O)c4ccn[nH]4)CC3(C)C)nc12 [Compound I-201]
7. Cc1nc(C(=O)N2CCN(C(=O)c3cn4nc(-c5ccc(F)cc5)cc(C(C)(C)C)c4n3)C(C)(C)C2)n[nH]1 [Compound I-343]
8. CC(C)(C)c1cc(-c2ccc(F)cc2)nn2cc(C(=O)N3CCN(C(=O)c4c[nH]cn4)CC3(C)C)nc12 [Compound I-232]

-- reply
189
66
70
39
87
55
62
75
